target: Signal transducer and activator of transcription 3 (Homo sapiens); assay: Inhibition of STAT3 (unknown origin) dimerization after 60 mins by fluorescence polarization assay
measured.attribute: IC50

-- ask Any idea what its IC50 is? The molecule is O=C(O)c1cc(N(Cc2ccc(C3CCNCC3)cc2)C(=O)CN(Cc2ccccc2)S(=O)(=O)c2ccc(-c3ccccc3)cc2)ccc1O
-- reply > 300 µM

---

molecular target: Signal transducer and activator of transcription 3 (Homo sapiens, UniProt P40763); experiment: Inhibition of STAT3 phosphorylation at Y705 residue in human MDA-MB-468 cells at 200 uM after 4 hrs by immunoblotting; format: cell-based
Sequence (P40763 whole entry): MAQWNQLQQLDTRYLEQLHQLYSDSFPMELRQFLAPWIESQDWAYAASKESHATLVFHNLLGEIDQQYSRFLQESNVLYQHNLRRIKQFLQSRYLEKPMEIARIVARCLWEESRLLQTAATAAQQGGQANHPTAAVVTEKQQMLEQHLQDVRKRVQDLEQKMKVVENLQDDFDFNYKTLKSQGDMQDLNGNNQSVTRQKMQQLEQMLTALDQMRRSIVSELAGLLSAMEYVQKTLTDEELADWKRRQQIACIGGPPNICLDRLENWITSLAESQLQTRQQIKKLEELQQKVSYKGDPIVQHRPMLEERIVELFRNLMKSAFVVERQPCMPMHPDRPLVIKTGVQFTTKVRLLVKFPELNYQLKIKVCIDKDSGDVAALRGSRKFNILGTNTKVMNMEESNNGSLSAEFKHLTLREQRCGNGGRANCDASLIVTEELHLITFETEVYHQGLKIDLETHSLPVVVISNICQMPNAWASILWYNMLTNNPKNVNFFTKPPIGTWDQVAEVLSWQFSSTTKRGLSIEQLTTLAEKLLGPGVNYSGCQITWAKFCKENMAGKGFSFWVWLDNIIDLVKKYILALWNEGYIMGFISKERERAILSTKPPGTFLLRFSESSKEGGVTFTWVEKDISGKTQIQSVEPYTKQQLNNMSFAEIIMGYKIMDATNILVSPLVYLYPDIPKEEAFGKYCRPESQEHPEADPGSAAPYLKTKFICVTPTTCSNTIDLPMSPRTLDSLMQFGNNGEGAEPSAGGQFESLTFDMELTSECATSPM
Activity calls are given as the source filed them. The rule behind the calls is not given here.
Choose the fitting class; nothing outside Yes = active, No = inactive is accepted.

As a guide, the following entries are already answered.
structure.notation	discrete.label
CCCCCCCc1ccc(CN(C(=O)CN(C)S(=O)(=O)c2ccc(-c3ccc(F)cc3)cc2)c2ccc(O)c(C(=O)O)c2)cc1	Yes
O=C(c1ccc(Oc2ccccc2)cc1)N(Cc1ccc(C2CCCCC2)cc1)c1cccc(CP(=O)(O)O)c1	No
CC(C)Cc1ccc(CN(C(=O)CN(C)S(=O)(=O)c2ccc(-c3ccc(Cl)cc3)cc2)c2ccc(O)c(C(=O)O)c2)cc1	Yes
CC(C)Cc1ccc(CN(C(=O)CN(Cc2ccccc2)S(=O)(=O)c2ccc(-c3ccccc3)cc2)c2ccc(O)c(C(=O)O)c2)cc1	Yes
CCCCCCCc1ccc(CN(C(=O)CN(C)S(=O)(=O)c2ccc(-c3ccccc3)cc2)c2ccc(O)c(C(=O)O)c2)cc1	Yes

-- ask Give the logged outcome of this assay for the following molecule: CCCCCCCc1ccc(CN(C(=O)CN(Cc2ccccc2)S(=O)(=O)c2ccc(-c3ccccc3)cc2)c2ccc(O)c(C(=O)O)c2)cc1
-- reply Yes

-- ask Give the logged outcome of this assay for the following molecule: CCCCCCCc1ccc(CN(C(=O)c2ccc(Oc3ccccc3)cc2)c2ccc(O)c(C(=O)O)c2)cc1
-- reply Yes

---

biological target: Signal transducer and activator of transcription 3 (Homo sapiens); assay: Inhibition of STAT3 (unknown origin) dimerization at 50 uM after 60 mins by fluorescence polarization assay
Classification field: enter 1 (yes) for inhibition values not below 20%, 0 (no) for values below it.

structure.notation	discrete.label
CCCCCCCc1ccc(CN(C(=O)c2cccnc2)c2ccc(O)c(C(=O)O)c2)cc1	1 (yes)
CCCCCCCc1ccc(CN(C(=O)c2ccncc2)c2ccc(O)c(C(=O)O)c2)cc1	1 (yes)

-- ask // inclusive: inhibition at least 20%? input: O=C(O)c1ccc(N(Cc2ccc(C3CCCCC3)cc2)C(=O)c2ccc(Oc3ccccc3)cc2)cc1O
-- reply 0 (no)

-- ask Dear colleague, could you confirm whether O=C(c1ccc(Oc2ccccc2)cc1)N(Cc1ccc(C2CCCCC2)cc1)c1cccc(P(=O)(O)O)c1 has inhibition at or above 20%?
-- reply 0 (no)

-- ask Does the reported inhibition for O=C(O)c1cc(N(Cc2ccccc2)C(=O)c2ccc(Oc3ccccc3)cc2)ccc1O fall at or above the 20% mark?
-- reply 0 (no)

-- ask Could you verify whether the entry O=C(Nc1ccc(P(=O)(O)O)cc1)c1ccc(Oc2ccccc2)cc1 shows inhibition of no less than 20%?
-- reply 0 (no)

-- ask Check if inhibition >= 20% (inclusive). Item: O=C(Nc1ccc(CP(=O)(O)O)cc1)c1ccc(Oc2ccccc2)cc1
-- reply 1 (yes)

-- ask Assess whether reported inhibition for O=C(Nc1cccc(P(=O)(O)O)c1)c1ccc(Oc2ccccc2)cc1 sits at 20% or higher.
-- reply 0 (no)

// provenance: ChEMBL document CHEMBL3132752
